Where these numbers come from: patent US20130116182A1

Biological target: T1, Recombinant HLA-DRB1*0101 protein (human)
T1 chain 1: not shown
T1 chain 2: not shown
Details: remark: other sources report otherwise
quantity-kind: IC50

Name the reported IC50 value associated with the binder ENIQRFLPNPAGVQLEDPEF [FVIII589-608 peptide]
4.2 µM

Okay, next one:
IC50 for ENRSWYLTENIQRFLPNPAG [FVIII581-600 peptide] ?
38 µM
